experiment: soluble on expression in E. coli; label from the status in PepcDB or PDB records

seq	soluble on expression in E. coli
METGAGIGLYPLHRCKTIYLVRHAQGIHNVDGEKNYKAYMSHDYFDAELTQLGWKQVDSLRKHVHSSGLHKKIELVISSPLMRTLQTAVGVFGGEGYTDMSDVLPLMVANAGNSSRAAISSLNCPPVITEESCREHLGVHPCDQRRSISDYQFLFPAVDFSLIESEEDKLWKADVRETIEELAARGKKFLNWLWTRKEKEIAIVTHSGFLFHTLNALQNECHPDVKKEICGHFANCELRSMVIVDRSMLGSDSSVTDYPGKIPKGIDLPSDAVVDDNNIKVE	soluble
DYRPGGFHPAFKGEPYKDARYILVRKLGWGHFSTVWLAKDMVNNTHVAMKIVRGDKVYTEAAEDEIKLLQRVNDADNTKEDSMGANHILKLLDHFNHKGPNGVHVVMVFEVLGENLLALIKKYEHRGIPLIYVKQISKQLLLGLDYMHRRCGIIHTDIKPENVLMEIVDSPENLIQIKIADLGNACWYDEHYTNSIQTREYRSPEVLLGAPWGCGADIWSTACLIFELITGDFLFEPDEGHSYTKDDDHIAQIIELLGELPSYLLRNGKYTRTFFNSRGLLRNISKLKFWPLEDVLTEKYKFSKDEAKEISDFLSPMLQLDPRKRADAGGLVNHPWLKDTLGMEEIRVPDRELYGSGSDIPGWFEEVRDHKRH	soluble
